Reference source for all entries: patent US5455271A

system.tested: cytosolic leucine aminopeptidase
assay.method.text: Inhibition of cytosolic leucine aminopeptidase
property.measured: IC50

Past entries and their recorded results:
molecule: N[C@@H](Cc1ccc(OCc2ccccc2)cc1)[C@H](O)C(=O)OCc1ccccc1
IC50: 80 µM
//
molecule: Cl.N[C@H](CS)Cc1ccc(OCc2ccccc2)cc1 [Compound 27, HCl]
IC50: > 50 µM

Next up:
Request: Recorded IC50 of N[C@@H](Cc1ccc(OCc2ccccc2)cc1)C(=O)C(=O)OCc1ccccc1 , please.
Result: > 100 µM

###

system.tested: LTA4 hydrolase (Homo sapiens)
assay.method.text: Inhibition of LTA4 hydrolase, amidase (aminopeptidase) activity, L-alanyl p-nitroanilide as substrate
Assay type: biochemical
Parameters: LTA4 hydrolase purified from human leukocytes; from tissue; host or cells: human leukocytes (purified enzyme)
property.measured: inhibition of LTA4 hydrolase (in words)

compound: COC(=O)[C@H](O)[C@H](N)Cc1ccccc1 [Compound 4, (2R, 3R)-AHPA methyl ester]
property.measured: inhibition of LTA4 hydrolase (in words)
observed.measurement: poor or no inhibition
//
compound: COC(=O)C(S)[C@@H](N)Cc1ccccc1 (some centres unmarked) [Compound 11]
property.measured: inhibition of LTA4 hydrolase (in words)
observed.measurement: poor inhibitors
//
compound: COC(=O)C(S)[C@H](N)Cc1ccccc1 (some centres unmarked) [Compound 12]
property.measured: inhibition of LTA4 hydrolase (in words)
observed.measurement: poor inhibitors
//
compound: COC(=O)[C@H](O)[C@@H](N)Cc1ccccc1 [Compound 1, (2R, 3S)-AHPA methyl ester]
property.measured: inhibition of LTA4 hydrolase (in words)
observed.measurement: poor or no inhibition

###

system.tested: LTA4 hydrolase (Homo sapiens, UniProt P09960)
Sequence (P09960 1-611): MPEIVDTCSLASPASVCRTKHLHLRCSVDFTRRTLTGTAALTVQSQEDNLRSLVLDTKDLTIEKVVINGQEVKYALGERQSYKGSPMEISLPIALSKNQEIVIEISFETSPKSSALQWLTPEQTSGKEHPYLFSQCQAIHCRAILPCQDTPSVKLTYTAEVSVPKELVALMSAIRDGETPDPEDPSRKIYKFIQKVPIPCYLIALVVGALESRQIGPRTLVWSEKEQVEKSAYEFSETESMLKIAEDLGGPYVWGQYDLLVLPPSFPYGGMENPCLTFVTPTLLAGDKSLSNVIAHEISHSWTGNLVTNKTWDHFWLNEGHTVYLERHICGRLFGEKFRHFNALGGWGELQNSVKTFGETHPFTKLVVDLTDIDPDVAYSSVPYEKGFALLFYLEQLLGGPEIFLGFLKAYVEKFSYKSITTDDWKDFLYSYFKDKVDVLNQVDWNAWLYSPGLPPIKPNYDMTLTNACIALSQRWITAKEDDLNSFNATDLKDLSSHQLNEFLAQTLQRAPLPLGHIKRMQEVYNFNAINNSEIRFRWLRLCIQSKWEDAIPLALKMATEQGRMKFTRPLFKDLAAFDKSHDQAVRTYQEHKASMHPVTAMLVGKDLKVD
assay.method.text: Inhibition of LTA4 hydrolase, amidase (aminopeptidase) activity, L-alanyl p-nitroanilide as substrate
Format: biochemical
Design: LTA4 hydrolase purified from human leukocytes; from tissue; host or cells: human leukocytes (purified enzyme)
conditions: L-alanyl p-nitroanilide 1.5 mM, pH 8.0; thiols with 5 mM DTT
So basically: is IC50 under 20 µM? Then met. Not under? Then not met.

Illustrative cases are given below, each with its answer.
smiles.structure: N[C@@H](Cc1ccccc1)[C@H](O)C(=O)NCCC(=O)O
system.tested: LTA4 hydrolase (Homo sapiens, UniProt P09960)
category.label: not met
//
smiles.structure: N[C@@H](Cc1ccc(OCc2ccccc2)cc1)C(=O)c1ccc(C(F)(F)F)cc1
system.tested: LTA4 hydrolase (Homo sapiens, UniProt P09960)
category.label: met

Request: Hello, is IC50 of the following compound strictly smaller than 20 µM? COC(=O)C(=O)[C@@H](N)Cc1ccc(OCc2ccccc2)cc1
Result: met

Request: Please check: IC50 for N[C@@H](Cc1ccccc1)[C@H](O)C(=O)OCc1ccccc1 , strictly under 20 µM or not?
Result: met

Request: Lab note: IC50 threshold 20 µM. Does this compound come in strictly under it? CC(C)C[C@H](NC(=O)C(=O)[C@@H](N)Cc1ccccc1)C(=O)O
Result: met

Request: Is IC50 of COC(=O)C(=O)[C@@H](N)Cc1ccccc1 strictly below 20 µM?
Result: not met

Request: Decide: IC50 of N[C@@H](Cc1ccccc1)[C@H](O)C(=O)NCC(=O)O strictly below 20 µM?
Result: met

###

system.tested: LTA4 hydrolase (Homo sapiens, UniProt P09960)
assay.method.text: Inhibition of LTA4 hydrolase, amidase (aminopeptidase) activity, L-alanyl p-nitroanilide as substrate
Type: biochemical
Set-up: LTA4 hydrolase purified from human leukocytes; from tissue; host or cells: human leukocytes (purified enzyme)
conditions: L-alanyl p-nitroanilide 1.5 mM, pH 8.0; thiols with 5 mM DTT
Structures can show the parent of a compound that is named as a salt.
Form field: IC50 (one value per entry).
Write down the numeric answer in µM and omit the unit.

Please review the following examples before continuing.
compound: N[C@@H](Cc1ccc(OCc2ccccc2)cc1)C(=O)c1cccc(C(=O)O)c1
IC50 (µM): 3

compound: N[C@H](Cc1ccccc1)[C@H](O)C(=O)NCCC(=O)O
IC50 (µM): 100

compound: NC[C@@H](N)Cc1ccc(OCc2ccc3ccccc3c2)cc1 [Compound 60, HCl]
IC50 (µM): 0.55

Turning now to a further record.
Request: Query (compound): N[C@@H](Cc1ccccc1)[C@H](O)Cc1ccccc1 [Compound 44, HCl] ; field requested: IC50
Result: 140

###

Tested on: Thromboxane B2 (TXB2)
assay.method.text: Inhibition of thromboxane B2 (TXB2) in calcium ionophore A-23187-stimulated human blood
Type: cell-based
conditions: Table 4, 10 μM, read-out: % Inhibition TXB2
Where a name gives a salt, the structure may show the parent alone.
The entries below come with measured inhibition at 10 µM values attached.
Your answer should be a plain number; it is taken to be in %.

molecule: N[C@@H](Cc1ccc(OCc2ccccc2)cc1)C(=O)c1ccc(C(F)(F)F)cc1
inhibition at 10 µM, %: 0

molecule: N[C@@H](Cc1ccccc1)C(=O)CCCC(=O)O [Compound 45, HCl]
inhibition at 10 µM, %: 12

molecule: NC(CSSCC(N)Cc1ccc(OCc2ccccc2)cc1)Cc1ccc(OCc2ccccc2)cc1 (stereo not shown) [Compound 27a, HCl]
inhibition at 10 µM, %: 24

molecule: COC(=O)C(=O)[C@@H](N)Cc1ccccc1
inhibition at 10 µM, %: 0

molecule: N[C@@H](Cc1ccccc1)C(=O)Cc1ccccc1
inhibition at 10 µM, %: 6

Request: inhibition at 10 µM for CC(C)C[C@H](NC(=O)[C@@H](O)[C@@H](N)Cc1ccccc1)C(=O)O ?
Result: 0

Request: GET /values?readout=inhibition at 10 µM&item= N[C@@H](Cc1ccc(OCc2ccccc2)cc1)C(=O)c1cccc(C(=O)O)c1
Result: 0

###

system.tested: LTA4 hydrolase (epoxide hydrolase activity) (Homo sapiens, UniProt P09960)
Construct: obtained from human leukocytes and was purified to apparent homogeneity; from tissue; host or cells: human leukocytes (purified to apparent homogeneity)
assay.method.text: Inhibition of epoxide hydrolase activity of LTA4 hydrolase, LTA4 as substrate
Format: biochemical
conditions: Table 5; read-out: IC50 Epoxide Hydrolase
property.measured: pIC50
Reminder that pIC50 means the negative base-10 logarithm of the concentration expressed in mol/L.

smiles.structure: COC(=O)C(=O)[C@@H](N)Cc1ccc(OCc2ccccc2)cc1
pIC50: 4.00

Kindly consider the entry below.
Request: State the recorded pIC50 for this entry: N[C@@H](Cc1ccccc1)[C@H](O)C(=O)OCc1ccccc1
Result: 4.00

###

system.tested: LTA4 hydrolase (Homo sapiens)
assay.method.text: Inhibition of LTA4 hydrolase, amidase (aminopeptidase) activity, L-alanyl p-nitroanilide as substrate
Format: biochemical
Set-up: LTA4 hydrolase purified from human leukocytes; from tissue; host or cells: human leukocytes (purified enzyme)
conditions: footnote d: less than 10 percent inhibition was observed at this concentration
property.measured: IC50

Request: Observed IC50 on LTA4 hydrolase (Homo sapiens) for CCOC(=O)C(F)(F)C(=O)c1nc[nH]c1C , please.
Result: > 1000 µM

###

system.tested: LTA4 hydrolase (epoxide hydrolase activity) (Homo sapiens, UniProt P09960)
Construct: obtained from human leukocytes and was purified to apparent homogeneity; from tissue; host or cells: human leukocytes (purified to apparent homogeneity)
assay.method.text: Inhibition of epoxide hydrolase activity of LTA4 hydrolase, LTA4 as substrate
Type: biochemical
property.measured: pIC50
As a rule, pIC50 stands for the negative log10 of the concentration, concentration in M.

Request: For the molecule C[C@H](CS)C(=O)N1CCC[C@H]1C(=O)O [Captopril, reference compound] , what pIC50 is on record?
Result: 3.62

###

system.tested: aminopeptidase M (Sus scrofa, UniProt P15145)
Sequence (P15145 whole entry): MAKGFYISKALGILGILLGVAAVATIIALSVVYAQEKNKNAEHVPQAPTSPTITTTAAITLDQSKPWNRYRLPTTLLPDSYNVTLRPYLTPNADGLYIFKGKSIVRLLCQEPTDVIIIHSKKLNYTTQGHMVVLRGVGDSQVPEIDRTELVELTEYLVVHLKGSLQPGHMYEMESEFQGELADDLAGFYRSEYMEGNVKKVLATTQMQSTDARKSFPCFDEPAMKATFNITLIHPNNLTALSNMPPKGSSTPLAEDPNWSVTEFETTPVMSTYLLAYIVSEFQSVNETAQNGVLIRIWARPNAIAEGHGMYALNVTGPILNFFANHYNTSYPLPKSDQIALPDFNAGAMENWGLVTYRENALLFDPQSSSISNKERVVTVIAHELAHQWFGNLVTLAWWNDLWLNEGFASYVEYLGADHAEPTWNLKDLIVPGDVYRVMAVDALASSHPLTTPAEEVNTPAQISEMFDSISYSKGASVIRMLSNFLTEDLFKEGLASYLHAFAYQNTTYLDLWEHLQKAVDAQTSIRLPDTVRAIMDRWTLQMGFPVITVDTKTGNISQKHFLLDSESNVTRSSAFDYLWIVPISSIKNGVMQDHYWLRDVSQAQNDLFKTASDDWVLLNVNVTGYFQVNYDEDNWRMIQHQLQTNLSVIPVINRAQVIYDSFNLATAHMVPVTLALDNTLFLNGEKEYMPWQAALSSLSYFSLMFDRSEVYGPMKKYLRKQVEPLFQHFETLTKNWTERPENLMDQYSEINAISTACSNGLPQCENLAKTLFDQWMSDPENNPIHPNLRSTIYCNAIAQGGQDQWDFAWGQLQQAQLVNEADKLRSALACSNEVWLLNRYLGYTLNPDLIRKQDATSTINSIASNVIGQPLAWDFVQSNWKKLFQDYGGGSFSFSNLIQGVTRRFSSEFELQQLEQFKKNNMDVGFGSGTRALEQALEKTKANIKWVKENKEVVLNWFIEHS
pIC50: −log10 of the molar value.
property.measured: pIC50

Request: Query for aminopeptidase M (Sus scrofa, UniProt P15145): what pIC50 does the record show for N[C@@H](Cc1ccc(OCc2ccccc2)cc1)[C@H](O)C(=O)OCc1ccccc1 ?
Result: < 4.00
